# assayTarget: Cannabinoid receptor 2 (Rattus norvegicus)
# Sequence (Q9QZN9 whole entry): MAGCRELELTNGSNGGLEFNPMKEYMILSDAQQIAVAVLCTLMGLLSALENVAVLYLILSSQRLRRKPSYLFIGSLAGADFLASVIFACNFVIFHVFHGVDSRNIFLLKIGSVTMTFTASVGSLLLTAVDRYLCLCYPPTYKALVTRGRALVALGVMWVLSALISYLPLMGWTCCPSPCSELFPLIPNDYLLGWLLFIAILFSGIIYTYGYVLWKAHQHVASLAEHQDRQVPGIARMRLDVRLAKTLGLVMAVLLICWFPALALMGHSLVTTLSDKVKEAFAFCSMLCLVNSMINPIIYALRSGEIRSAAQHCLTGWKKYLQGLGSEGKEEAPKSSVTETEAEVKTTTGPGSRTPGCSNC
metricName: pKi
Reminder that pKi is minus the log10 of a molar concentration.

Observe how each entry below is paired with its result.
molecule="CC1COc2cccc3c(=O)c(C(=O)NC4CCCCC4)cn1c23 (racemic)" observed=7.19
molecule="CCC1COc2cccc3c(=O)c(C(=O)NC4CCCCC4)cn1c23 (racemic)" observed=7.62
molecule="Cc1cc2c3c(c1)c(=O)c(C(=O)NC1CCCCC1)cn3C(c1ccccc1)CO2 (racemic)" observed=7.60
molecule="O=C(NC1CCCCC1)c1cn2c3c(cccc3c1=O)OCC2C1CC1 (racemic)" observed=7.74
molecule=CC1(C)COc2cccc3c(=O)c(C(=O)NC45CC6CC(CC(C6)C4)C5)cn1c23 observed=7.17

Prompt: Recorded pKi for O=C(NC1CCCCCC1)c1cn2c3c(cccc3c1=O)OCC2c1ccccc1 (racemic) , please?
Response: 7.83

Prompt: Recorded pKi for O=C(NC1CCCC1)c1cn2c3c(cccc3c1=O)OCC2c1ccccc1 (racemic) , please?
Response: 6.96

Prompt: Recorded pKi for CC(C)C1COc2cccc3c(=O)c(C(=O)NC45CC6CC(CC(C6)C4)C5)cn1c23 (racemic) , please?
Response: 8.37

Prompt: Recorded pKi for "CC[C@@H]1COc2cccc3c(=O)c(C(=O)NC45CC6CC(CC(C6)C4)C5)cn1c23" , please?
Response: 8.21

Prompt: Recorded pKi for CCC1COc2cccc3c(=O)c(C(=O)NC45CC6CC(CC(C6)C4)C5)cn1c23 (racemic) , please?
Response: 7.87

Prompt: Recorded pKi for CC1COc2cccc3c(=O)c(C(=O)NC4CCCCCC4)cn1c23 (racemic) , please?
Response: 7.28

Prompt: Recorded pKi for O=C(NC1CCCCCC1)c1cn2c3c(cccc3c1=O)OCC2C1CC1 (racemic) , please?
Response: 8.45

Prompt: Recorded pKi for O=C(NC12CC3CC(CC(C3)C1)C2)c1cn2c3c(cccc3c1=O)OCC2c1ccccc1 (racemic) , please?
Response: 7.74

Prompt: Recorded pKi for "CC[C@@H]1COc2cccc3c(=O)c(C(=O)NC4CCCCCC4)cn1c23" , please?
Response: 8.22

Prompt: Recorded pKi for CC1COc2cccc3c(=O)c(C(=O)NC45CC6CC(CC(C6)C4)C5)cn1c23 (racemic) , please?
Response: 7.26

Prompt: Recorded pKi for "C[C@@H]1COc2cccc3c(=O)c(C(=O)NC45CC6CC(CC(C6)C4)C5)cn1c23" , please?
Response: 7.28

Prompt: Recorded pKi for CCC1COc2cccc3c(=O)c(C(=O)NC4C5CC6CC(C5)CC4C6)cn1c23 (racemic) , please?
Response: 7.79

Prompt: Recorded pKi for "C[C@H]1COc2cccc3c(=O)c(C(=O)NC4CCCCC4)cn1c23" , please?
Response: 6.60

Prompt: Recorded pKi for CCC1COc2cccc3c(=O)c(C(=O)Nc4ccncc4)cn1c23 (racemic) , please?
Response: 6.74

----------
# assayTarget: Cannabinoid receptor 1 (Homo sapiens)
# Sequence (P21554 whole entry): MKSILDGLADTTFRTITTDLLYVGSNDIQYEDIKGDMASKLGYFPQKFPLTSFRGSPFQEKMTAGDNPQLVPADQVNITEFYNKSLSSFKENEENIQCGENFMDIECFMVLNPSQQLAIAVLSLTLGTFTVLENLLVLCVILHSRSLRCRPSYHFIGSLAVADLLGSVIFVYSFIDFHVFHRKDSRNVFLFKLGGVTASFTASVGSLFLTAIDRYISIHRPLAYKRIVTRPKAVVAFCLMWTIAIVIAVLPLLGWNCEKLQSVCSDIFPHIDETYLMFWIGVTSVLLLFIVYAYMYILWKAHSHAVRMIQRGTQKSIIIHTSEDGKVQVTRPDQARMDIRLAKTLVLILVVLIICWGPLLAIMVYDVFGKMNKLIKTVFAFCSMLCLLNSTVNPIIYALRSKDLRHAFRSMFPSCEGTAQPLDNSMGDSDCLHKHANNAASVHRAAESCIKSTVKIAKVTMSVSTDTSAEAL
# experimentNotes: Displacement of [3H]CP-55940 from human recombinant CB1 receptor expressed in CHO cell membranes incubated for 90 mins by scintillation counting
Each entry falls in a class defined on Ki; the bands are bottom bin: < 200 nM; middle bin: ≥ 200 nM and < 600 nM; top bin: ≥ 600 nM

molecule="CCC1COc2cccc3c(=O)c(C(=O)NC(C)CCC(C)C)cn1c23 (racemic)" assaytarget="Cannabinoid receptor 1 (Homo sapiens)" categorylabel="top bin"
molecule="CCC1COc2c(N3CCN(C)CC3)ccc3c(=O)c(C(=O)NC45CC6CC(CC(C6)C4)C5)cn1c23 (racemic)" assaytarget="Cannabinoid receptor 1 (Homo sapiens)" categorylabel="top bin"
molecule="O=C(NC12CC3CC(CC(C3)C1)C2)c1cn2c3c(cccc3c1=O)OC(c1ccccc1)C2c1ccccc1 (racemic)" assaytarget="Cannabinoid receptor 1 (Homo sapiens)" categorylabel="top bin"
molecule="CCC1COc2cccc3c(=O)c(C(=O)NC4CCCCC4)cn1c23 (racemic)" assaytarget="Cannabinoid receptor 1 (Homo sapiens)" categorylabel="top bin"
molecule="CCC1COc2c(F)ccc3c(=O)c(C(=O)NC45CC6CC(CC(C6)C4)C5)cn1c23 (racemic)" assaytarget="Cannabinoid receptor 1 (Homo sapiens)" categorylabel="middle bin"

Prompt: Hello team, could you let me know which band the following molecule falls into: O=C(NC1CCCCC1)c1cn2c3c(cccc3c1=O)OCC2C1CC1 (racemic)
Response: bottom bin

Prompt: Hello team, could you let me know which band the following molecule falls into: O=C(NC1CCCC1)c1cn2c3c(cccc3c1=O)OCC2c1ccccc1 (racemic)
Response: bottom bin

Prompt: Hello team, could you let me know which band the following molecule falls into: "CC1(C)COc2cccc3c(=O)c(C(=O)NC45CC6CC(CC(C6)C4)C5)cn1c23"
Response: middle bin

----------
Each item that follows carries a reported Ki.
# assayTarget: Cannabinoid receptor 1 (Rattus norvegicus, UniProt P20272)
# Sequence (P20272 whole entry): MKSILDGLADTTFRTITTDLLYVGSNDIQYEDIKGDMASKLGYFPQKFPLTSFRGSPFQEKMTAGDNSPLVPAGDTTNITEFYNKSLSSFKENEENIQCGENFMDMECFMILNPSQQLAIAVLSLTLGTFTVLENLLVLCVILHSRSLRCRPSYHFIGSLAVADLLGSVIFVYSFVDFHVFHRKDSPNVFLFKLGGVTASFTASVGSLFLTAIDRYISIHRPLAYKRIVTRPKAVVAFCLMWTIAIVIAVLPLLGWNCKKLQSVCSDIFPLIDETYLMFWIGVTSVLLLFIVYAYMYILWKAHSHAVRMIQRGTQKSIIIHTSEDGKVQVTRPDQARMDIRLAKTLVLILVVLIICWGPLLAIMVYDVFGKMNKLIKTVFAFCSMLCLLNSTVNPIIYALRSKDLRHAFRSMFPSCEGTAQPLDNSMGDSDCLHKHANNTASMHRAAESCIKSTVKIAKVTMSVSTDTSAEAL
# experimentNotes: Displacement of [3H]CP-55940 from CB1 receptor in Sprague-Dawley rat brain by scintillation counting

Observe how each entry below is paired with its result.
molecule="CCC1COc2cccc3c(=O)c(C(=O)N(C(C)C)C(C)C)cn1c23 (racemic)" observed="> 10 µM"
molecule="CCC1COc2cccc3c(=O)c(C(=O)NC(C)CCC(C)C)cn1c23 (racemic)" observed="> 10 µM"

Next item in the queue.
Prompt: Recorded Ki for CC1COc2cccc3c(=O)c(C(=O)NC45CC6CC(CC(C6)C4)C5)cn1c23 (racemic) , please?
Response: > 10 µM

----------
# assayTarget: Cannabinoid receptor 2 (Homo sapiens, UniProt P34972)
# Sequence (P34972 whole entry): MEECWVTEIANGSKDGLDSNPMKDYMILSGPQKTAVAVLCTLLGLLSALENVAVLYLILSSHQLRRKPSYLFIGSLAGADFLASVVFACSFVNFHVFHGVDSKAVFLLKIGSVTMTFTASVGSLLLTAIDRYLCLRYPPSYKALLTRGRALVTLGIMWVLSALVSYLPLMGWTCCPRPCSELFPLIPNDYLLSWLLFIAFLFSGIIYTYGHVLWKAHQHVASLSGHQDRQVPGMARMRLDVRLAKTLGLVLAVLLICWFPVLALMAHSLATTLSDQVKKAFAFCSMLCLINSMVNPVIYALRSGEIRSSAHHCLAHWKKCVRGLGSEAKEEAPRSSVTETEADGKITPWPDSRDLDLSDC
# experimentNotes: Agonist activity at human recombinant CB2 receptor expressed in CHO cell membranes assessed as inhibition of forskolin-induced cAMP accumulation
Each item that follows carries a reported pIC50.
Reminder that pIC50 is minus the log10 of a molar concentration.

Observe how each entry below is paired with its result.
compound="Cc1cc2c3c(c1)c(=O)c(C(=O)NC1CCCCC1)cn3C(c1ccccc1)CO2 (racemic)" assaytarget="Cannabinoid receptor 2 (Homo sapiens, UniProt P34972)" metricname=pIC50 observed=6.96
compound="O=C(NC1CCCCC1)c1cn2c3c(cccc3c1=O)OCC2C1CC1 (racemic)" assaytarget="Cannabinoid receptor 2 (Homo sapiens, UniProt P34972)" metricname=pIC50 observed=7.17

Next item in the queue.
Prompt: Recorded pIC50 for "C[C@@H]1COc2cccc3c(=O)c(C(=O)NC45CC6CC(CC(C6)C4)C5)cn1c23" , please?
Response: 6.82

----------
# assayTarget: UniProtKB Q9QZN9
# experimentNotes: Displacement of [3H]CP-55940 from CB2 receptor in Sprague-Dawley rat spleen by scintillation counting
Each item that follows carries a reported Ki.
// return the numeric value with its unit appended

Observe how each entry below is paired with its result.
compound="CCC1COc2c(F)ccc3c(=O)c(C(=O)NC45CC6CC(CC(C6)C4)C5)cn1c23 (racemic)" metricname=Ki observed="9.51 nM"
compound="CCCC1COc2ccc(C)c3c(=O)c(C(=O)NC4CCCCC4)cn1c23 (racemic)" metricname=Ki observed="43 nM"
compound=CC(C)C[C@@H]1COc2cccc3c(=O)c(C(=O)NC45CC6CC(CC(C6)C4)C5)cn1c23 metricname=Ki observed="10.2 nM"
compound=C[C@H]1COc2cccc3c(=O)c(C(=O)NC45CC6CC(CC(C6)C4)C5)cn1c23 metricname=Ki observed="86 nM"

Next item in the queue.
Prompt: Recorded Ki for CC1Oc2cccc3c(=O)c(C(=O)NC45CC6CC(CC(C6)C4)C5)cn(c23)C1c1ccccc1 (racemic) , please?
Response: 443 nM

----------
Each item that follows carries a reported pKi.
# assayTarget: UniProtKB P21554
# experimentNotes: Displacement of [3H]CP-55940 from human recombinant CB1 receptor expressed in CHO cell membranes incubated for 90 mins by scintillation counting
Reminder that pKi is minus the log10 of a molar concentration.

Observe how each entry below is paired with its result.
compound="O=C(NC12CC3CC(CC(C3)C1)C2)c1cn2c3c(cccc3c1=O)OCC2C1CC1 (racemic)" assaytarget="UniProtKB P21554" metricname=pKi observed=6.41
compound="O=C(NC1CCCCCC1)c1cn2c3c(cccc3c1=O)OCC2c1ccccc1 (racemic)" assaytarget="UniProtKB P21554" metricname=pKi observed=6.51
compound="CCC1COc2cccc3c(=O)c(C(=O)NC45CC6CC(CC(C6)C4)C5)cn1c23 (racemic)" assaytarget="UniProtKB P21554" metricname=pKi observed=6.16
compound="CC1Oc2cccc3c(=O)c(C(=O)NC45CC6CC(CC(C6)C4)C5)cn(c23)C1c1ccccc1 (racemic)" assaytarget="UniProtKB P21554" metricname=pKi observed=5.61
compound="CCCC1COc2ccc(C)c3c(=O)c(C(=O)NC45CC6CC(CC(C6)C4)C5)cn1c23 (racemic)" assaytarget="UniProtKB P21554" metricname=pKi observed=6.35

Prompt: Recorded pKi for "CC[C@@H]1COc2cccc3c(=O)c(C(=O)NC4CCCCCC4)cn1c23" , please?
Response: 6.98

Prompt: Recorded pKi for CC12CC3CC(C)(C1)CC(NC(=O)c1cn4c5c(cccc5c1=O)OCC4c1ccccc1)(C3)C2 (racemic) , please?
Response: 6.34

Prompt: Recorded pKi for "CC[C@H]1COc2cccc3c(=O)c(C(=O)NC45CC6CC(CC(C6)C4)C5)cn1c23" , please?
Response: 6.24

Prompt: Recorded pKi for CCCC1COc2cccc3c(=O)c(C(=O)NC4CCCCC4)cn1c23 (racemic) , please?
Response: 7.99

Prompt: Recorded pKi for "C[C@H]1COc2cccc3c(=O)c(C(=O)NC4CCCCC4)cn1c23" , please?
Response: 5.33

Prompt: Recorded pKi for "O=C(NC12CC3CC(CC(C3)C1)C2)c1cn2c3c(cccc3c1=O)OC[C@H]2Cc1ccccc1" , please?
Response: 6.98

Prompt: Recorded pKi for CC1COc2cccc3c(=O)c(C(=O)NC4CCCCC4)cn1c23 (racemic) , please?
Response: 5.67
